All figures here come from paper PMC11239830.

MIC values by entry
- System: S. aureus
- Assay overview: MIC, broth microdilution
- Type: cell-based, Staphylococcus aureus
- Recorded conditions: S. aureus 15B196, c-ermB
Your answer should be a plain number; it is taken to be in µg/mL.

Molecule	Measured quantity	Measured
CC[C@H]1OC(=O)[C@H](C)[C@@H](OC(=O)NCCCCCC#Cc2ccc3c(=O)c(C(=O)NO)cn(C4CC4)c3c2)[C@H](C)[C@@H](O[C@@H]2O[C@H](C)C[C@H](N(C)C)[C@H]2O)[C@](C)(OC)C[C@@H](C)C(=NOC)[C@H](C)[C@H]2OC(=O)O[C@@]21C [57e]	MIC	128
CC[C@H]1OC(=O)[C@H](C)[C@@H](OC(=O)NCCCCCC#Cc2ccc3c(c2)c(=O)c(C(=O)O)cn3C2CC2)[C@H](C)[C@@H](O[C@@H]2O[C@H](C)C[C@H](N(C)C)[C@H]2O)[C@](C)(O)C[C@@H](C)CN(C)[C@H](C)[C@H]2OC(=O)O[C@@]21C [110a]	MIC	256
CC[C@H]1OC(=O)[C@H](C)C(=O)[C@H](C)[C@@H](O[C@@H]2O[C@H](C)C[C@H](N(C)C)[C@H]2O)[C@](C)(OC)C[C@@H](C)C(=O)[C@H](C)[C@H]2N(CCCCn3cnc(-c4cccnc4)c3)C(=O)O[C@]12C [telithromycin, reference compound]	MIC	32

Request: Check the records and state MIC for CC[C@H]1OC(=O)[C@H](C)[C@@H](OC(=O)NCCCC#Cc2ccc3c(=O)c(C(=O)O)cn(C4CC4)c3c2)[C@H](C)[C@@H](O[C@@H]2O[C@H](C)C[C@H](N(C)C)[C@H]2O)[C@](C)(O)C[C@@H](C)CN(C)[C@H](C)[C@H]2OC(=O)O[C@@]21C [108c]
Response: 512

Request: Specify measured MIC for CC[C@H]1OC(=O)[C@H](C)[C@@H](OC(=O)NCCNCCC#Cc2ccc3c(=O)c(C(=O)O)cn(C4CC4)c3c2)[C@H](C)[C@@H](O[C@@H]2O[C@H](C)C[C@H](N(C)C)[C@H]2O)[C@](C)(OC)C[C@@H](C)C(=NOC)[C@H](C)[C@H]2OC(=O)O[C@@]21C [74c] .
Response: 256

----------
Below, each of the molecules is paired with its reported MIC value.
- Test system: S. aureus
- Assay overview: MIC, broth microdilution
- Type: cell-based, Staphylococcus aureus
- Recorded conditions: S. aureus 15B196, c-ermB
- Procedure: MICs were determined by the microdilution method according to the Clinical and Laboratory Standards Institute guidelines. […] Finally, the 96-well plates were incubated at 37 °C for 16–20 h to observe and record the results. […] The assay for MICs was replicated at least three times.
API: value field is a number in µg/mL; no unit string.

Molecule	Measured on	Endpoint unit	MIC
CC[C@H]1OC(=O)[C@H](C)[C@@H](OC(=O)NCCOCCC#Cc2ccc3c(=O)c(C(=O)O)cn(C4CC4)c3c2)[C@H](C)[C@@H](O[C@@H]2O[C@H](C)C[C@H](N(C)C)[C@H]2O)[C@](C)(OC)C[C@@H](C)C(=NOC)[C@H](C)[C@H]2OC(=O)O[C@@]21C [70c]	S. aureus	µg/mL	128

Read the next record carefully.
Request: Indicate its recorded MIC; the molecule in question is CC[C@H]1OC(=O)[C@H](C)[C@@H](OC(=O)NCCCCCC#Cc2ccc3c(=O)c(C(=O)O)cn(C4CC4)c3c2)[C@H](C)[C@@H](O[C@@H]2O[C@H](C)C[C@H](N(C)C)[C@H]2O)[C@](C)(O)C[C@@H](C)CN(C)[C@H](C)[C@H]2OC(=O)O[C@@]21C [110c]
Response: 128
